The following molecules have recorded ΔTm on Calcium/calmodulin-dependent protein kinase type 1G (Homo sapiens) (UniProt Q96NX5).
Sequence (Q96NX5 whole entry): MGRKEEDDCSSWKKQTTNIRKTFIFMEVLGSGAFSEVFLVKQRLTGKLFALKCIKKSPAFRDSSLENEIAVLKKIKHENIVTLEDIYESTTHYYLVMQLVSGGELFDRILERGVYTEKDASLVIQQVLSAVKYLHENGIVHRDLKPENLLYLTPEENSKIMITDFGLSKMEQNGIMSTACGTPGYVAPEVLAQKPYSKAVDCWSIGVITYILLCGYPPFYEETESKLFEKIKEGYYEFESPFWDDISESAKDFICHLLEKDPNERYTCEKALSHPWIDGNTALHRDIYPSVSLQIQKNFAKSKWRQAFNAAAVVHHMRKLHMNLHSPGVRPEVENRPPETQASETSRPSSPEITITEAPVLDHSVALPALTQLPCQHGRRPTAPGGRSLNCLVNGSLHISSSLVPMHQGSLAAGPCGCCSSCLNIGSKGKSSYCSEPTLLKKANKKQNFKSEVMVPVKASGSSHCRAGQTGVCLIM

>  <molecule>
Cc1[nH]c(/C=C2\C(=O)Nc3ccc(S(=O)(=O)N(C)c4cccc(Cl)c4)cc32)c(C)c1C(=O)N1CCN(C)CC1

>  <ΔTm>
1.7 °C

$$$$
>  <molecule>
O=c1sn(Cc2ccccc2)c(=S)n1Cc1ccccc1

>  <ΔTm>
-0.1 °C

$$$$
>  <molecule>
CC(C)[C@H](CO)Nc1nc(Nc2cc(N)cc(Cl)c2)c2ncn(C(C)C)c2n1 [AMINOPURVALANOL]

>  <ΔTm>
0.5 °C

$$$$
>  <molecule>
CCOC(=O)c1cnc2oc3ccc(O)cc3c2c1-c1ccccc1

>  <ΔTm>
0.1 °C

$$$$
>  <molecule>
COC(=O)[C@]1(O)C[C@@H]2O[C@@]1(C)n1c3ccccc3c3c4c(c5c6ccccc6n2c5c31)C(=O)NC4 (single isomer, unassigned)

>  <ΔTm>
2.2 °C

$$$$
>  <molecule>
O=C(Nc1cccc(Nc2cc(Nc3cccc(C(F)(F)F)c3)ncn2)c1)C1CC1

>  <ΔTm>
3.7 °C

$$$$
>  <molecule>
C[C@@H](N)[C@H]1CC[C@H](C(=O)Nc2ccncc2)CC1

>  <ΔTm>
-0.3 °C

$$$$
>  <molecule>
COc1ccc(CNc2nc(N(CCO)CCO)nc3c2ncn3C(C)C)cc1

>  <ΔTm>
0.6 °C

$$$$
>  <molecule>
CC(C)c1nn(-c2c(Cl)cccc2Cl)c2nc(Cc3ccc(OCCO)cc3)[nH]c(=O)c12

>  <ΔTm>
0.3 °C

$$$$
>  <molecule>
O=C1C=C2C(=Nc3c2c2c(c4c3=NC3=C4CCC=C3)C=NC=2)CC1

>  <ΔTm>
3.6 °C

$$$$
>  <molecule>
CCCCc1c(-c2ccc(O)cc2)[nH]c2nccnc12 [ALOISINE A]

>  <ΔTm>
0.6 °C

$$$$
>  <molecule>
O=S(=O)(c1cccc2c(Cl)cccc12)N1CCCNCC1

>  <ΔTm>
-0.1 °C

$$$$
>  <molecule>
O=C(Nc1cccc(Nc2nccc(Nc3cccc(C(F)(F)F)c3)n2)c1)C1CC1 [ANILINOPYRIMIDINE1]

>  <ΔTm>
3.8 °C

$$$$
>  <molecule>
O=C1Nc2ccccc2/C1=C\c1ccc[nH]1

>  <ΔTm>
1.9 °C

$$$$
>  <molecule>
CCN(CC)CCNC(=O)c1c(C)[nH]c(/C=C2\C(=O)Nc3ccc(Cl)cc32)c1C [SU-11652]

>  <ΔTm>
5.7 °C

$$$$
>  <molecule>
Nc1n[nH]c2nnc(-c3c(-c4ccccc4)nn4ccccc34)cc12

>  <ΔTm>
0.1 °C

$$$$
>  <molecule>
NCCNc1ncc(C(N)=O)c(Nc2cccc(C(F)(F)F)c2)n1

>  <ΔTm>
5.7 °C

$$$$
>  <molecule>
CC(C)(C)n1nc(-c2ccc(Cl)cc2)c2c(N)ncnc21

>  <ΔTm>
0 °C

$$$$
>  <molecule>
O=c1c(-c2ccc(F)cc2)c(-c2ccncc2)[nH]n1-c1ccc(Cl)cc1

>  <ΔTm>
1.3 °C

$$$$
>  <molecule>
O=C1Nc2ccc(I)cc2/C1=C\c1cc(Br)c(O)c(Br)c1

>  <ΔTm>
-1.8 °C

$$$$
>  <molecule>
Cc1nc2sccn2c(=O)c1CCN1CCC(=C(c2ccccc2)c2ccc(F)cc2)CC1

>  <ΔTm>
0.4 °C

$$$$
>  <molecule>
O=C1NC(=O)c2c1c1c3ccccc3n3c1c1c2c2ccccc2n1C1CCC3O1

>  <ΔTm>
-0.2 °C

$$$$
>  <molecule>
CC(C)(C)n1nc(-c2cccc3ccccc23)c2c(N)ncnc21

>  <ΔTm>
-0.3 °C

$$$$
>  <molecule>
CCOc1cc(/C=C(\C#N)C(N)=O)cc(CSc2ccccc2)c1O

>  <ΔTm>
0 °C

$$$$
>  <molecule>
O=C1Nc2ccccc2/C1=C/c1cnc[nH]1

>  <ΔTm>
1.2 °C

$$$$
>  <molecule>
Clc1ccc(Nc2nnc(Cc3ccncc3)c3ccccc23)cc1

>  <ΔTm>
0.5 °C

$$$$
>  <molecule>
NCCNS(=O)(=O)c1cccc2c(Cl)cccc12

>  <ΔTm>
0 °C

$$$$
>  <molecule>
COc1cc(O)c2c(c1)oc(=O)c1c3cc(O)c(O)cc3oc21 [WEDELOLACTONE]

>  <ΔTm>
0.1 °C

$$$$
>  <molecule>
O=C1Cc2c([nH]c3ccc([N+](=O)[O-])cc23)-c2ccccc2N1

>  <ΔTm>
0.5 °C

$$$$
>  <molecule>
COc1cc2c(cc1OC)-c1n[nH]c(Nc3cccc(F)c3)c1C2

>  <ΔTm>
1.6 °C

$$$$
>  <molecule>
COc1cc(OC)c(/C=C2\C(=O)Nc3ccccc32)c(OC)c1

>  <ΔTm>
0 °C

$$$$
>  <molecule>
Oc1cccc(-c2nc(N3CCOCC3)c3oc4ncccc4c3n2)c1

>  <ΔTm>
0.1 °C

$$$$
>  <molecule>
CN(C)CC1CCn2c(c(C3=C(c4c[nH]c5ccccc45)C(=O)NC3=O)c3ccccc32)C1 (stereo unspecified)

>  <ΔTm>
0.3 °C

$$$$
>  <molecule>
COC1=C2C[C@@H](C)C[C@H](OC)[C@H](O)[C@@H](C)/C=C(\C)[C@H](OC(N)=O)[C@@H](OC)/C=C\C=C(/C)C(=O)NC(=CC1=O)C2=O

>  <ΔTm>
0.2 °C

$$$$
>  <molecule>
CC(C)(C)c1nc2c3ccc(F)cc3c3c(=O)[nH]ccc3c2[nH]1

>  <ΔTm>
1.9 °C

$$$$
>  <molecule>
NS(=O)(=O)c1ccc(Nc2nc(OCC3CCCCC3)c3nc[nH]c3n2)cc1

>  <ΔTm>
1.6 °C

$$$$
>  <molecule>
C#Cc1cccc(Nc2ncnc3cc(OCCOC)c(OCCOC)cc23)c1

>  <ΔTm>
0 °C

$$$$
>  <molecule>
O=C(O)c1cc(NCc2cc(O)ccc2O)ccc1O

>  <ΔTm>
-0.1 °C

$$$$
>  <molecule>
O=c1cc(-c2ccc(O)cc2)oc2cc(O)cc(O)c12

>  <ΔTm>
0.9 °C

$$$$
>  <molecule>
Cn1cnc2c(NCc3ccccc3)nc(NCCO)nc21 [OLOMOUCINE]

>  <ΔTm>
0 °C

$$$$
>  <molecule>
Cl.Cn1cc(C2=C(c3ccc4cc5n(c4c3)CCC(CN)C5)C(=O)NC2=O)c2ccccc21 (stereo unspecified)

>  <ΔTm>
0.3 °C

$$$$

Value source: ChEMBL document CHEMBL1145498
